Recorded values, source ChEMBL document CHEMBL1795233.

System: Bacillus subtilis
method: Effect on quorum sensing-mediated genetic competence in Bacillus subtilis expressing srfA-lacZ fusion assessed as concentration required to show same activity at EC25 of ComXRO-E-2 pheromone after 5 hrs by beta-galactosidase assay
*1 amine or outer side, *2 acyl side, *3 side chain or, on linkers, in order; H or OH if unused. Where a SMILES comes first, the peptide text is derived from it. [ ]: non-standard residue; d: D form. X4 = CC(C)=CCC/C(C)=C/C[C@]12C[C@@H](C(=O)[*:2])N([*:1])[C@H]1Nc1ccccc12; X1 = C/C(=C\C[C@]12C[C@@H](C(=O)[*:2])N([*:1])[C@H]1Nc1ccccc12)CCCC(C)C; X3 = CC(C)=CC[C@]12C[C@@H](C(=O)[*:2])N([*:1])[C@H]1Nc1ccccc12
Decision: EC25 >= 50 nM yields true (1), all other cases yield false (0).

Illustrative cases are given below, each with its answer.
[[record]]
compound = "CC[C@H](C)[C@H](N)C(=O)N1[C@H]2Nc3ccccc3[C@@]2(C/C=C(\\C)CCC=C(C)C)C[C@H]1C(=O)N[C@@H](C)C(=O)O"
targetundertest = "Bacillus subtilis"
classassignment = "false (0)"

[[record]]
compound = "CC(C)=CCC/C(C)=C/C[C@]12C[C@@H](C(=O)N[C@@H](CCC(=O)O)C(=O)O)N(C(=O)[C@H](C)N)[C@H]1Nc1ccccc12"
targetundertest = "Bacillus subtilis"
classassignment = "true (1)"

[[record]]
compound = "CC[C@H](C)[C@H](NC(=O)CN)C(=O)N[C@@H](Cc1ccccc1)C(=O)N1[C@H]2Nc3ccccc3[C@@]2(C/C=C(\\C)CCC=C(C)C)C[C@H]1C(=O)N[C@@H](CCC(=O)O)C(=O)N[C@@H](CCC(N)=O)C(=O)O (H-GIF[X4]EQ-OH)"
targetundertest = "Bacillus subtilis"
classassignment = "false (0)"

[[record]]
compound = "CC(C)=CCC/C(C)=C/C[C@]12C[C@H]3C(=O)N[C@@H](Cc4ccccc4)C(=O)N3[C@H]1Nc1ccccc12"
targetundertest = "Bacillus subtilis"
classassignment = "true (1)"


Q: Is it the case that CC[C@H](C)[C@H](NC(=O)CN)C(=O)N[C@@H](Cc1ccccc1)C(=O)N1[C@H]2Nc3ccccc3[C@@]2(CCC(C)CCCC(C)C)C[C@H]1C(=O)N[C@@H](CCC(=O)O)C(=O)N[C@@H](CCC(N)=O)C(=O)O (mixture of isomers) has EC25 reaching or exceeding 50 nM?
Ans: true (1)

Q: Is it the case that CC(C)=CCC/C(C)=C/C[C@]12C[C@@H](C(=O)N[C@@H](C)C(=O)O)N(C(=O)C(N)Cc3ccccc3)[C@H]1Nc1ccccc12 (single isomer, unassigned) has EC25 reaching or exceeding 50 nM?
Ans: false (0)

Q: Is it the case that CC(C)=CCC/C(C)=C/C[C@]12C[C@@H](C(=O)N[C@@H](C)C(=O)O)N(C(=O)[C@@H](N)Cc3cc4ccccc4[nH]3)[C@H]1Nc1ccccc12 has EC25 reaching or exceeding 50 nM?
Ans: true (1)

Q: Is it the case that CC[C@H](C)[C@H](NC(=O)CN)C(=O)N[C@@H](Cc1ccccc1)C(=O)N1[C@H]2Nc3ccccc3[C@@]2(CC=C(C)C)C[C@H]1C(=O)N[C@@H](CCC(=O)O)C(=O)N[C@@H](CCC(N)=O)C(=O)O (H-GIF[X3]EQ-OH) has EC25 reaching or exceeding 50 nM?
Ans: true (1)

Q: Is it the case that CC[C@H](C)[C@H](NC(=O)CN)C(=O)N[C@@H](Cc1ccccc1)C(=O)N1[C@H]2Nc3ccccc3[C@@]2(C/C=C(\C)CCCC(C)C)C[C@H]1C(=O)N[C@@H](CCC(=O)O)C(=O)N[C@@H](CCC(N)=O)C(=O)O (H-GIF[X1]EQ-OH) has EC25 reaching or exceeding 50 nM?
Ans: false (0)
